Target: T1, DLG3_3, Q92796
T1 sequence (Q92796 374-475, limits assumed, looked up): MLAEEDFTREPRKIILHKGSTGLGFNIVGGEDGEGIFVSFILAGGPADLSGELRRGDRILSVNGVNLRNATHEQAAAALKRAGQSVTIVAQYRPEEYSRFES
Assay: holdup assay
Parameters: key: below the threshold = too weak to quantify, mostly under pKd 3.1 to 4
Settings: plain residues with an end cap or a label only (N-terminal biotin on a linker: ahx)
readout_type: pKd
Write no unit; give the number alone.

INSERT INTO results (binder, readout_type, quantitative_result) VALUES
  ('QPRTWLQSPV [RTKN, Q9BST9]', 'pKd', 4.41),
  ('QDEKVKESYV [ABCA1, O95477]', 'pKd', 3.97),
  ('TQKFRASTAL [FRMPD1, Q5SYB0]', 'pKd', 3.85);

Now for another entry.
Field request: pKd | item: HTHSYIETHV [CNKSR2, Q8WXI2] 4.01
